# Test Summary: Tmax in Sprague-Dawley rat at 1 mg/kg, iv and 1.5 mg/kg, po
# Format: ADME, organism-based
# Test Settings: in vivo
Measured Parameter: Tmax (h)
Return type: number; implicit unit h.

For reference, reported Tmax for `O=C(O)CCC(=O)N1CCc2cc(-c3noc(-c4cc(C(F)(F)F)cc(C(F)(F)F)c4)n3)ccc21` stands at 3

====

# Test Summary: Clearance in Sprague-Dawley rat at 2 mg/kg, iv and 3 mg/kg, po
# Assay type: ADME, organism-based
# Test Settings: in vivo
Measured Parameter: clearance

For reference, reported clearance for `N#Cc1cc(OC(F)(F)F)cc(-c2nc(-c3ccc4c(c3)CCN4C(=O)CCC(=O)O)no2)c1` stands at 0.75 mL/min/kg
